Read-out: DNA damage-inducible transcript 3 (DDIT3), DDIT3 (gene 1649)
Test: LTEA_HepaRG_DDIT3: Life Technologies and Expression Analysis (LTEA) Assay for DNA damage-inducible transcript 3 (DDIT3) using HepaRG (AID 2283488)
Conditions: mRNA level, 48 h; actives raise or lower the signal
The source made the active and inactive calls. The calls were made as follows: active = hit-call score of the fitted dose curve at least 0.9, where 1 is the maximum; inactive = score below 0.9.
Classes used: active, inactive

INSERT INTO assay_data (smiles_record, assigned_class) VALUES
  ('C#CCOC(=O)[C@@H](C)Oc1ccc(Oc2ncc(Cl)cc2F)cc1', 'inactive'),
  ('COC(=O)CSc1cc(N=c2sc(=O)n3n2CCCC3)c(F)cc1Cl', 'inactive'),
  ('O=C(O)c1ccccc1', 'inactive'),
  ('CCOC(=O)COc1cc(-n2ncc(C(F)(F)F)c(C)c2=O)c(F)cc1Cl', 'inactive'),
  ('S=C([S-])NCCNC(=S)[S-].[Mn+2]', 'active'),
  ('C#C[C@]1(O)CC[C@H]2[C@@H]3CCC4=CC(=O)CC[C@@H]4[C@H]3CC[C@@]21CC', 'inactive'),
  ('CC(C)(c1ccc(O)cc1)c1ccc(O)cc1', 'inactive'),
  ('CC(=O)[C@H]1CC[C@H]2[C@@H]3CCC4=CC(=O)CC[C@]4(C)[C@H]3CC[C@]12C', 'active'),
  ('Oc1ccc(C(c2ccc(O)cc2)C(Cl)(Cl)Cl)cc1', 'active'),
  ('COC(=O)c1ccc(I)cc1S(=O)(=O)NC(=O)Nc1nc(C)nc(OC)n1', 'inactive'),
  ('CCCN(CCC)C(=O)SCC', 'inactive');

* * *

Read-out: Insulin-like growth factor-binding protein 1 (IGFBP1), IGFBP1 (gene 3484)
Assay: LTEA_HepaRG_IGFBP1: Life Technologies and Expression Analysis (LTEA) Assay for Insulin-like growth factor-binding protein 1 (IGFBP1) using HepaRG (AID 2283508)
Conditions: mRNA level, 48 h; actives raise or lower the signal
Calls of active or inactive are those of the source. How the source made its calls: active means hit-call score of the fitted dose curve at least 0.9, where 1 is the maximum; inactive means score below 0.9.
Classes used: class 1 for active, class 0 for inactive

INSERT INTO assay_data (molecule, assigned_class) VALUES
  ('C[C@]12C[C@H](O)[C@H]3[C@@H](CCC4=CC(=O)CC[C@@]43C)[C@@H]1CC[C@@H]2C(=O)CO', 'class 0'),
  ('CCN(CC)C(=O)c1cccc(C)c1', 'class 0'),
  ('C[C@]12CC[C@@H]3c4ccc(O)cc4C[C@@H](CCCCCCCCCS(=O)CCCC(F)(F)C(F)(F)F)[C@H]3[C@@H]1CC[C@@H]2O (stereo partly specified)', 'class 1'),
  ('Cc1nn(C)c(Oc2ccccc2)c1C=NOCc1ccc(C(=O)OC(C)(C)C)cc1', 'class 1'),
  ('CC(C)(c1ccc(O)cc1)c1ccc(O)cc1', 'class 0'),
  ('CCCOC(=O)NCCCN(C)C', 'class 0'),
  ('O=C(O)C1(C(=O)Nc2ccc(Cl)cc2Cl)CC1', 'class 0'),
  ('C=CCOC(Cn1ccnc1)c1ccc(Cl)cc1Cl (stereo unspecified)', 'class 1'),
  ('CCOC(=O)c1ccc(O)cc1', 'class 0'),
  ('CCSC(=O)N(CC(C)C)CC(C)C', 'class 0'),
  ('N[C@@H](Cc1cc(I)c(Oc2ccc(O)c(I)c2)c(I)c1)C(=O)O', 'class 0');

* * *

Read-out: Glutathione S-Transferase (GSTA2), GSTA2 (gene 2939)
Experiment: LTEA_HepaRG_GSTA2: Life Technologies and Expression Analysis (LTEA) Assay for Glutathione S-Transferase (GSTA2) using HepaRG (AID 2283497)
Conditions: mRNA level, 48 h; actives raise or lower the signal
Calls of active or inactive are those of the source. Rule for the calls: active = hit-call score of the fitted dose curve at least 0.9, where 1 is the maximum; inactive = score below 0.9.
Classes used: active, inactive

INSERT INTO assay_data (compound, assigned_class) VALUES
  ('COCCO', 'inactive'),
  ('O=C(c1ccc(O)cc1O)c1ccc(O)cc1O', 'inactive'),
  ('C#CCOC(=O)[C@@H](C)Oc1ccc(Oc2ncc(Cl)cc2F)cc1', 'inactive'),
  ('CCN(CC)C(=O)c1cccc(C)c1', 'inactive'),
  ('c1ccc(Nc2ccccc2)cc1', 'inactive'),
  ('CCCCCOC(=O)COc1cc(N2C(=O)C3=C(CCCC3)C2=O)c(F)cc1Cl', 'inactive'),
  ('CCC(C)OC(=O)N1CCCCC1CCO (stereo not drawn)', 'inactive'),
  ('S=C([S-])NCCNC(=S)[S-].[Mn+2]', 'active'),
  ('CCCCC(CC)CN1C(=O)C2C3C=CC(C3)C2C1=O (stereo not drawn)', 'active'),
  ('CC1(C)C(C=C(Cl)Cl)C1C(=O)OCc1cccc(Oc2ccccc2)c1 (stereo not drawn)', 'inactive'),
  ('C[C@]12C[C@H](O)[C@H]3[C@@H](CCC4=CC(=O)CC[C@@]43C)[C@@H]1CC[C@@H]2C(=O)CO', 'inactive'),
  ('O=C(O)c1ccccc1', 'inactive'),
  ('CCCOC(=O)c1ccc(C(=O)OCCC)nc1', 'inactive'),
  ('O=C(c1ccccc1)C1CCCCC1', 'inactive'),
  ('CCSC(=O)N(CC(C)C)CC(C)C', 'inactive'),
  ('CSC(=O)c1cccc2nnsc12', 'inactive'),
  ('CCNc1nc(N)nc(Cl)n1', 'inactive'),
  ('CN(C)C(=O)Nc1ccc(Cl)c(Cl)c1', 'active'),
  ('CCOC(=O)C(C)Oc1ccc(Oc2nc3ccc(Cl)cc3o2)cc1 (stereo not drawn)', 'active'),
  ('CCCCOCCOCCOCc1cc2c(cc1CCC)OCO2', 'inactive'),
  ('O=C(Nc1ccc([N+](=O)[O-])cc1Cl)c1cc(Cl)ccc1O', 'active'),
  ('CCCN(CCC)c1c([N+](=O)[O-])cc(C(F)(F)F)c(N)c1[N+](=O)[O-]', 'inactive'),
  ('CC(=O)[C@H]1CC[C@H]2[C@@H]3CCC4=CC(=O)CC[C@]4(C)[C@H]3CC[C@]12C', 'active'),
  ('CCOC(=O)COc1cc(-n2ncc(C(F)(F)F)c(C)c2=O)c(F)cc1Cl', 'inactive'),
  ('CCCCC(CC)COC(=O)c1ccccc1C(=O)O (stereo not drawn)', 'inactive'),
  ('CCOC(=O)NCCOc1ccc(Oc2ccccc2)cc1', 'active'),
  ('CCOC(=O)c1ccc(O)cc1', 'inactive'),
  ('CC(=O)S[C@@H]1CC2=CC(=O)CC[C@]2(C)[C@H]2CC[C@@]3(C)[C@@H](CC[C@@]34CCC(=O)O4)[C@H]12', 'active');

* * *

Read-out: Forkhead box O1 (FOXO1), FOXO1 (gene 2308)
Assay: LTEA_HepaRG_FOXO1: Life Technologies and Expression Analysis (LTEA) Assay for Forkhead box O1 (FOXO1) using HepaRG (AID 2283456)
Conditions: mRNA level, 48 h; actives raise or lower the signal
Method: LTEA_HepaRG is a cell based, multiplexed-readout assay that uses HepaRG, a human liver cell line, with measurements taken at 48 hours after chemical dosing on a 96-well plate.LTEA_HepaRG_FOXO1 is one of 102 assay component(s) measured in the LTEA HepaRG cell culture assay. It is a marker of Cell proliferation, survival, death.Data from the assay component LTEA_HepaRG_FOXO1 was analyzed into 1 endpoint. […]
Activity calls are given as the source filed them. How the source made its calls: active means hit-call score of the fitted dose curve at least 0.9, where 1 is the maximum; inactive means score below 0.9.
Classes used: y = active, n = inactive

INSERT INTO assay_data (compound, assigned_class) VALUES
  ('CN(C)C(=O)Nc1ccc(Cl)c(Cl)c1', 'n'),
  ('COC(=O)CSc1cc(N=c2sc(=O)n3n2CCCC3)c(F)cc1Cl', 'n'),
  ('N#CSCSc1nc2ccccc2s1', 'n'),
  ('Cc1nn(C)c(Oc2ccccc2)c1C=NOCc1ccc(C(=O)OC(C)(C)C)cc1', 'y'),
  ('CCCOC(=O)NCCCN(C)C', 'n'),
  ('O=C(Nc1ccc([N+](=O)[O-])cc1Cl)c1cc(Cl)ccc1O', 'y'),
  ('CC(=O)[C@H]1CC[C@H]2[C@@H]3CCC4=CC(=O)CC[C@]4(C)[C@H]3CC[C@]12C', 'y'),
  ('CCN(CC)C(=O)c1cccc(C)c1', 'n'),
  ('CC(C)(C)[C@@H](O)[C@@H](Cc1ccc(Cl)cc1)n1cncn1', 'n'),
  ('COc1c(Cl)ccc(Cl)c1C(=O)O', 'n'),
  ('CCN(Cc1c(F)cccc1Cl)c1c([N+](=O)[O-])cc(C(F)(F)F)cc1[N+](=O)[O-]', 'n'),
  ('S=C([S-])NCCNC(=S)[S-].[Mn+2]', 'y'),
  ('C=CCOC(Cn1ccnc1)c1ccc(Cl)cc1Cl (configuration not stated)', 'y'),
  ('N[C@@H](Cc1cc(I)c(Oc2ccc(O)c(I)c2)c(I)c1)C(=O)O', 'n'),
  ('CCCN(CCC)C(=O)SCC', 'n'),
  ('CCC(C)OC(=O)N1CCCCC1CCO (configuration not stated)', 'n'),
  ('CCOC(=O)NCCOc1ccc(Oc2ccccc2)cc1', 'y');

Cited source: PubChem BioAssay (EPA / NIEHS)
